B1: glmS ribozyme (parent)
chain: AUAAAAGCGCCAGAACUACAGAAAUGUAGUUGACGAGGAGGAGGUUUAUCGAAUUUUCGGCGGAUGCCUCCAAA

Variants of: B1
Experiment summary: self-cleavage kobs at 640 uM GlcN6P; higher = faster cleavage; RNA array
Condition set: with glucosamine-6-phosphate
Fewer inactive variants are shown than the library holds.
Recorded self-cleavage kobs at 640 uM GlcN6P for the following variants

Sequence code	self-cleavage kobs at 640 uM GlcN6P
AUAAAAGCGCCAGAACUACAGAAAUGUAGUUGACGAGGAGGAGGUUUUACGAAUUUUCGGCGGAUGCCUCCAAA [A48U U49A]	< 1e-05 s⁻¹
AUAAAAGCGCCAGAACUACAGAAAUGUAGUUGACGAGGAGGAGGUUAAUCGAAUUUUCGGCGCAUGCCUCCAAA [U47A G63C]	< 1e-05 s⁻¹
AUAAAAGUGCCAGAACUACAGAAAUGUAGUUGACGAGGAGGAGGUUUAUCGAAUUUUAGGCGGACGCCUCCAAA [C8U C58A U65C]	< 1e-05 s⁻¹
AUAAAAGCGCCAAAACUACAGAAAUGUAGUUGACGAGGAGGAGGUUUAUCGUAUUUUCGGCGGAUGCCUGCAAA [G13A A52U C70G]	< 1e-05 s⁻¹
AUAAAAGCGCCAGAACUACAGAAAUGUAGUUGAUGAGGAGCAGGUUUAUCGAAUUUUCGGCGGAUUCCUCCAAA [C34U G41C G66U]	< 1e-05 s⁻¹
AUAAAAGCGCCAGAACUACAGAAAUGUAGUUGACGAGGAGGAGGUUUAGCGAAUUUUCGGCCGAUGCCUCCAAA [U49G G62C]	< 1e-05 s⁻¹
AUAAAAGCACCAGAACUACAGAAAUGUAGUUGACGAGGAGUAGGUUUAUCGAAUUGUCGGCGGAUGCCUCCAAA [G9A G41U U56G]	< 1e-05 s⁻¹
AUAAAAGCGCCAGAACUACAGAAAUGUAGUUGACGAGGAGGAGGUUUAUCGAAUUUUCGGCGGAGGACUCCAAA [U65G C67A]	0.000435 s⁻¹

-- ask Item AUAAAAGCGCCAGAACUACAGAAAUGUAGUUAACGAGGAGGAGGUUUAUCGAAUUUGCGGCGGAUGCCGCCAAA [G32A U57G U69G] has what recorded self-cleavage kobs at 640 uM GlcN6P?
-- reply 0.000252 s⁻¹

-- ask Item AUAAAAGCGCCAGAACUACAGAAAUGUAGUUGAAGGGGAGGAGGUUUAUCGAAUUUUCGGCGGAUGCCUCCAAA [C34A A36G] has what recorded self-cleavage kobs at 640 uM GlcN6P?
-- reply < 1e-05 s⁻¹

-- ask Item AUAAAACCGCCAGACCUACAGAAAUGUAGUUGACGAGGAGGAGGUUUAUCUAAUUUUCGGAGGAUUCCUCCAAA [G7C A15C G51U C61A G66U] has what recorded self-cleavage kobs at 640 uM GlcN6P?
-- reply < 1e-05 s⁻¹

-- ask Item AUAAAACCGUCAGAACUACAGAAAUGUAGUUGACGAGGAGGAUGUUUAUCGAAUUUUCGGCGGAUGCCUCCAAA [G7C C10U G43U] has what recorded self-cleavage kobs at 640 uM GlcN6P?
-- reply < 1e-05 s⁻¹

-- ask Item AUAAAAGCGCCAGAACUACAGAAAUGUAGUUGACGAGGAGAAGGUUUAUCGAAUUUUCGGUGGAUGCCUCCAAA [G41A C61U] has what recorded self-cleavage kobs at 640 uM GlcN6P?
-- reply < 1e-05 s⁻¹
